Please go through the items and note down their RP-LC retention time.
experiment: gradient 5% acetonitrile 3 min, to 50% in 2 min, to 85% in 15 min, held 3 min, 100 µL/min; settings: column: Zorbax Extend-C18 2.1 x 50 mm; eluents: water / acetonitrile, 0.1% formic acid
Your answer is read as s, so omit the unit and give the number.

Query: Using known records, supply RP-LC retention time for CC1CCN(CC2CCCCCN2C(=O)Nc2ccc3c(c2)OCCO3)CC1 (stereo not given)
Result: 684

Query: Using known records, supply RP-LC retention time for `COc1ccccc1-c1noc(Cn2ncn3nc(-c4ccc(Br)cc4)cc3c2=O)n1`
Result: 1110

Query: Using known records, supply RP-LC retention time for `Cc1ccc(-c2ncc(NC(=O)C3CCC3)cn2)cc1`
Result: 941

Query: Using known records, supply RP-LC retention time for `COCCC(=O)N1CC(F)(F)C[C@H]1c1nc(C2CC2)no1`
Result: 713

Query: Using known records, supply RP-LC retention time for COc1cc(-n2cnc3cc(C(=O)NCC4CCCO4)ccc32)cc(OC)c1OC (stereo not given)
Result: 660

Query: Using known records, supply RP-LC retention time for `CCn1ccc2sc(C)c(C(=O)N3CCC(N4CCCCC4)CC3)c2c1=O`
Result: 566

Query: Using known records, supply RP-LC retention time for `CCN1c2ccccc2C(=O)NC12CCN(C(=O)c1ccccc1OC)CC2`
Result: 732

Query: Using known records, supply RP-LC retention time for `Cc1nn(CC(=O)NCCCN2CCCC2)c(=O)c2nc(-c3ccccc3)sc12`
Result: 620

Query: Using known records, supply RP-LC retention time for `Cc1ccc(S(=O)(=O)NC2CCN(C(=O)c3ccnn3C)CC2)cc1`
Result: 688

Query: Using known records, supply RP-LC retention time for COCC(=O)N(CC(=O)N1CCc2sccc2C1COc1ccc(Cl)cc1)C(C)(C)C (stereo not given)
Result: 991

Query: Using known records, supply RP-LC retention time for `O=C(Cn1nc(Cc2ccncc2)c2ccccc2c1=O)N1CC=C(c2ccccc2)CC1`
Result: 685

Query: Using known records, supply RP-LC retention time for `CCc1noc2nc(C)n(CC(=O)NCc3ccc(C)cc3)c(=O)c12`
Result: 829

Query: Using known records, supply RP-LC retention time for `CC(C)NC(=O)c1ccc2c(c1)Sc1ncccc1C(=O)N2C(C)C`
Result: 736

Query: Using known records, supply RP-LC retention time for `CCOC(=O)c1nc(Nc2ccc(C(=O)OC(C)C)cc2)c2ccccc2n1`
Result: 989

Query: Using known records, supply RP-LC retention time for `CCN(CC)C(=O)c1cccnc1`
Result: 627

Query: Using known records, supply RP-LC retention time for `Cc1ccc(S(=O)(=O)N2C[C@@H]3C[C@H]2C[C@@H]3NC(=O)c2ccccc2)cc1Cl`
Result: 946

Query: Using known records, supply RP-LC retention time for CN(CC1CCOC1)C(=O)Nc1ccc(Cl)cc1 (stereo not given)
Result: 696

Query: Using known records, supply RP-LC retention time for `CCCc1c(C(=O)O)nnn1-c1ccc(OC)c(Cl)c1`
Result: 773

Query: Using known records, supply RP-LC retention time for `O=C([C@@H]1C[C@H](F)CN1S(=O)(=O)c1ccc(F)c(Cl)c1)N1CCCCC1`
Result: 875

Query: Using known records, supply RP-LC retention time for CC1Cc2cc(S(=O)(=O)N3CCN(c4ccccn4)CC3)ccc2N1C(=O)C1CC1 (stereo not given)
Result: 668

Query: Using known records, supply RP-LC retention time for `O=c1n(CCOc2ccc(F)cc2)nc2ccc(S(=O)(=O)N3CCCC3)cn12`
Result: 859

Query: Using known records, supply RP-LC retention time for O=C1C2N=NN(Cc3nc(-c4ccccc4Br)no3)C2C(=O)N1c1ccc(F)cc1 (stereo not given)
Result: 960

Query: Using known records, supply RP-LC retention time for `O=C(O)/C=C/C(=O)Nc1cccc2cccnc12`
Result: 751

Query: Using known records, supply RP-LC retention time for Cc1nnc(C2CC3(CCN(CCc4ccccc4)CC3)CN2Cc2ccccc2)o1 (stereo not given)
Result: 656

Query: Using known records, supply RP-LC retention time for `CCCCNC(=O)c1sc(Nc2cccc(C)n2)nc1C`
Result: 777

Query: Using known records, supply RP-LC retention time for O=C(NC1CCCC1)N1CCCCC1c1nncn1-c1ccccc1 (stereo not given)
Result: 602

Query: Using known records, supply RP-LC retention time for `CC(C)c1cc(=O)n(CC(=O)Nc2nc3c(s2)CCCC3)cn1`
Result: 692

Query: Using known records, supply RP-LC retention time for `O=C(CSc1nnc2c3sc(N4CCCC4)nc3ncn12)Nc1ccc2c(c1)OCO2`
Result: 766

Query: Using known records, supply RP-LC retention time for `Cc1ccc(NC(=O)C2CCN(S(=O)(=O)c3c(C)[nH]c(C)c3C(=O)N3CCCC3)CC2)cc1`
Result: 723

Query: Using known records, supply RP-LC retention time for `COc1ccc(S(=O)(=O)NCc2cccnc2-c2ccc(C)cc2)cc1`
Result: 679

Query: Using known records, supply RP-LC retention time for `c1ccc([C@@H]2CN(Cc3ccncc3)C[C@H]2COc2cccnc2)nc1`
Result: 516

Query: Using known records, supply RP-LC retention time for `CC(C)CN1CCN(Cc2nc(Cn3ccn4nc(-c5ccccc5)cc4c3=O)no2)CC1`
Result: 665

Query: Using known records, supply RP-LC retention time for `CO[C@H]1C(=O)N(C(C)C)[C@H]1C1CCN(C(=O)c2ccsc2)CC1`
Result: 693

Query: Using known records, supply RP-LC retention time for `O=C(c1ccc(Cl)c(N2C(=O)CCS2(=O)=O)c1)N1CCN(c2ncccn2)CC1`
Result: 641

Query: Using known records, supply RP-LC retention time for `CCOC(=O)c1cc(S(=O)(=O)N2CCN(c3ccccn3)CC2)[nH]n1`
Result: 598

Query: Using known records, supply RP-LC retention time for `COc1ccccc1CC(=O)Nc1ccc(-c2nc(Cn3cc(C)cn3)c(C)o2)cc1`
Result: 909

Query: Using known records, supply RP-LC retention time for `Cc1ccc(S(=O)(=O)c2cnc(N3CCC4(CC3)OCCO4)nc2N)cc1`
Result: 858

Query: Using known records, supply RP-LC retention time for `Cc1nc(Nc2ccc(F)cn2)sc1C(=O)N1CCN(C2CCCCC2)CC1`
Result: 639

Query: Using known records, supply RP-LC retention time for `COC(=O)c1ccc(NC(=O)N(C)c2ccccc2)cc1`
Result: 771

Query: Using known records, supply RP-LC retention time for `COc1ccc(N2CCN(C(=O)c3cn4ccccc4n3)CC2)cc1`
Result: 603

###

Please go through the items and note down their RP-LC retention time.
experiment: gradient 5% acetonitrile 3 min, to 50% in 2 min, to 85% in 15 min, held 3 min, 100 µL/min; settings: column: Zorbax Extend-C18 2.1 x 50 mm; eluents: water / acetonitrile, 0.1% formic acid
Your answer is read as s, so omit the unit and give the number.

Query: Using known records, supply RP-LC retention time for `Cc1csc(-c2ccc(CNC(=O)c3cc(F)cc(F)c3)cc2)n1`
Result: 939

Query: Using known records, supply RP-LC retention time for `Cc1noc(C)c1-c1ccc(S(=O)(=O)Nc2ccc(F)c(Cl)c2)cc1`
Result: 969

Query: Using known records, supply RP-LC retention time for `Cc1cc(C(=O)CSc2nnnn2-c2ccccc2)c(C)n1Cc1ccco1`
Result: 969

Query: Using known records, supply RP-LC retention time for COc1ccccc1CC(=O)NC1CCN(Cc2c(C)noc2C)C1 (stereo not given)
Result: 584

Query: Using known records, supply RP-LC retention time for `CCOc1ccc(NC(=O)CSc2cc(N3CCN(c4ccc(OC)cc4)CC3)ncn2)cc1`
Result: 1160

Query: Using known records, supply RP-LC retention time for `Cc1ccc2c(c1)cc(S(=O)(=O)c1ccccc1)c(=O)n2CC(=O)NCc1ccccc1Cl`
Result: 948

Query: Using known records, supply RP-LC retention time for `O=C(c1cc(-c2ccco2)on1)N1CCn2c1nc1ccccc12`
Result: 621

Query: Using known records, supply RP-LC retention time for `CC(=O)Nc1ccc(NC(=O)c2ccc3noc(-c4ccc(Cl)cc4)c3c2)cc1`
Result: 817

Query: Using known records, supply RP-LC retention time for CCCN(C)c1nccnc1OC1CCN(C(=O)CC)C1 (stereo not given)
Result: 694

Query: Using known records, supply RP-LC retention time for `CCc1cccc(NC(=O)c2cc(CC)n3nccc3n2)c1`
Result: 1150

###

assay: gradient 5% acetonitrile 3 min, to 50% in 2 min, to 85% in 15 min, held 3 min, 100 µL/min; conditions: column: Zorbax Extend-C18 2.1 x 50 mm; eluents: water / acetonitrile, 0.1% formic acid
Satisfied means recorded RP-LC retention time is 800 s or above; Not satisfied means it is below 800 s.

Query: Decide: RP-LC retention time of `Cc1ccc(NC(=O)Cc2c(C)nn(-c3nc(-c4ccc(F)cc4)cs3)c2C)c(C)c1` >= 800 s?
Result: Satisfied

Query: Decide: RP-LC retention time of `COc1ccc(CN(C)Cc2cc(=O)n3ccccc3n2)cc1OC` >= 800 s?
Result: Not satisfied

Query: Decide: RP-LC retention time of `CCn1ccc(C(=O)N2CCN(c3cc(-c4ccc(Cl)cc4)[nH]n3)CC2)n1` >= 800 s?
Result: Satisfied

Query: Decide: RP-LC retention time of `CCn1c(=O)c(N2CCC(NC(=O)NCCCOC)CC2)nc2ccccc21` >= 800 s?
Result: Not satisfied

Query: Decide: RP-LC retention time of `Cc1noc(-c2nn(C)c3c2CN(C(=O)C2CCCC2)CC3)n1` >= 800 s?
Result: Not satisfied

Query: Decide: RP-LC retention time of `CCN(CC)C(=O)N1CC(Oc2cccc(-c3nc(C)no3)c2)C1` >= 800 s?
Result: Satisfied

Query: Decide: RP-LC retention time of CN1C(=O)c2cc(C(=O)NC3CCCCC3)nn2CC1(C)C(=O)NCc1ccccc1 (centres undefined) >= 800 s?
Result: Not satisfied

Query: Decide: RP-LC retention time of CC(C)NC(=O)C1CCCN(c2nc3ncn(CC(=O)Nc4ccccc4)c(=O)c3s2)C1 (centres undefined) >= 800 s?
Result: Not satisfied

Query: Decide: RP-LC retention time of `O=C(NCCC1CCN(S(=O)(=O)c2ccc(F)cc2)CC1)Nc1ccccc1` >= 800 s?
Result: Satisfied
